test system: Escherichia coli; assay: Antibacterial activity against Escherichia coli 12140 by two-fold agar dilution method; type: functional
property-measured: MIC (µg/mL)
Numbers only; they are read as µg/mL.

Problem: Missing value: MIC, Escherichia coli, entry CCCCS(=O)(=O)CC(=O)N[C@@H]1C(=O)N2C(C(=O)O)=C(COC(C)=O)CS[C@H]12 . Fill in?
Result: 13

Problem: Missing value: MIC, Escherichia coli, entry CCCCS(=O)(=O)CC(=O)N[C@@H]1C(=O)N2C(C(=O)[O-])=C(CSc3nnnn3C)CS[C@H]12.[Na+] . Fill in?
Result: 3.1

Problem: Missing value: MIC, Escherichia coli, entry Cn1nnnc1SCC1=C(C(=O)O)N2C(=O)[C@@H](NC(=O)CSC(F)(F)F)[C@H]2SC1 [CEFAZAFLUR] . Fill in?
Result: 0.4

Problem: Missing value: MIC, Escherichia coli, entry CC(=O)OCC1=C(C(=O)[O-])N2C(=O)[C@@H](NC(=O)CS(C)(=O)=O)[C@H]2SC1.[Na+] . Fill in?
Result: 13

Problem: Missing value: MIC, Escherichia coli, entry Cc1nnc(SCC2=C(C(=O)[O-])N3C(=O)[C@@H](NC(=O)CS(C)(=O)=O)[C@H]3SC2)[nH]1.[Na+] . Fill in?
Result: 6.2

Problem: Missing value: MIC, Escherichia coli, entry CC(=O)OCC1=C(C(=O)[O-])N2C(=O)[C@@H](NC(=O)CS(=O)(=O)c3ccccc3)[C@H]2SC1.[Na+] . Fill in?
Result: 50

Problem: Missing value: MIC, Escherichia coli, entry CCS(=O)(=O)CC(=O)N[C@@H]1C(=O)N2C(C(=O)O)=C(CSc3nnc(C)s3)CS[C@H]12 . Fill in?
Result: 3.1

Problem: Missing value: MIC, Escherichia coli, entry CS(=O)(=O)CC(=O)N[C@@H]1C(=O)N2C(C(=O)[O-])=C(CSc3cnn[nH]3)CS[C@H]12.[Na+] . Fill in?
Result: 13

---

tested on: Escherichia coli; test: Antibacterial activity against Escherichia coli 12140 by two-fold agar dilution method; type: functional
property-measured: MIC
Kindly report the value followed by its unit.

Problem: Entry under review: CCCCS(=O)(=O)CC(=O)N[C@@H]1C(=O)N2C(C(=O)[O-])=C(CSc3nnc(C)s3)CS[C@H]12.[Na+] . Reported MIC?
Result: 6.2 µg/mL

Problem: Entry under review: Cn1nnnc1SCC1=C(C(=O)O)N2C(=O)[C@@H](NC(=O)CS(=O)(=O)c3ccccc3)[C@H]2SC1 . Reported MIC?
Result: 3.1 µg/mL

Problem: Entry under review: Cn1nnnc1SCC1=C(C(=O)[O-])N2C(=O)[C@@H](NC(=O)CS(C)(=O)=O)[C@H]2SC1.[Na+] . Reported MIC?
Result: 1.6 µg/mL

---

Give MIC for every item shown.
system: Klebsiella pneumoniae; test: Antibacterial activity against Klebsiella pneumoniae 4200 by two-fold agar dilution method; type: functional
Numbers only; they are read as µg/mL.

Problem: Missing value: MIC, Klebsiella pneumoniae, entry CCS(=O)(=O)CC(=O)N[C@@H]1C(=O)N2C(C(=O)[O-])=C(COC(C)=O)CS[C@H]12.[Na+] . Fill in?
Result: 6.2

Problem: Missing value: MIC, Klebsiella pneumoniae, entry CC(=O)OCC1=C(C(=O)O)N2C(=O)[C@@H](NC(=O)CS(=O)(=O)C(F)(F)F)[C@H]2SC1 . Fill in?
Result: 6.2

Problem: Missing value: MIC, Klebsiella pneumoniae, entry CS(=O)(=O)CC(=O)N[C@@H]1C(=O)N2C(C(=O)[O-])=C(CSc3nnn[nH]3)CS[C@H]12.[Na+] . Fill in?
Result: 3.1

Problem: Missing value: MIC, Klebsiella pneumoniae, entry Cn1nnnc1SCC1=C(C(=O)O)N2C(=O)[C@@H](NC(=O)CSC(F)(F)F)[C@H]2SC1 . Fill in?
Result: 0.8

Problem: Missing value: MIC, Klebsiella pneumoniae, entry CCCS(=O)(=O)CC(=O)N[C@@H]1C(=O)N2C(C(=O)[O-])=C(CSc3nnnn3C)CS[C@H]12.[Na+] . Fill in?
Result: 0.8

Problem: Missing value: MIC, Klebsiella pneumoniae, entry Cn1nnnc1SCC1=C(C(=O)[O-])N2C(=O)[C@@H](NC(=O)CS(=O)(=O)C(F)(F)F)[C@H]2SC1.[Na+] . Fill in?
Result: 3.1

Problem: Missing value: MIC, Klebsiella pneumoniae, entry CC(=O)OCC1=C(C(=O)[O-])N2C(=O)[C@@H](NC(=O)CS(N)(=O)=O)[C@H]2SC1.[Na+] . Fill in?
Result: 25

Problem: Missing value: MIC, Klebsiella pneumoniae, entry CCCCS(=O)(=O)CC(=O)N[C@@H]1C(=O)N2C(C(=O)[O-])=C(CSc3nnnn3C)CS[C@H]12.[Na+] . Fill in?
Result: 3.1

Problem: Missing value: MIC, Klebsiella pneumoniae, entry CC(C(=O)N[C@@H]1C(=O)N2C(C(=O)[O-])=C(CSc3nnnn3C)CS[C@H]12)S(C)(=O)=O.[Na+] (stereo partly drawn) . Fill in?
Result: 6.2

Problem: Missing value: MIC, Klebsiella pneumoniae, entry Cn1nnnc1SCC1=C(C(=O)[O-])N2C(=O)[C@@H](NC(=O)CS(N)(=O)=O)[C@H]2SC1.[Na+] . Fill in?
Result: 13

Problem: Missing value: MIC, Klebsiella pneumoniae, entry Cc1nnc(SCC2=C(C(=O)O)N3C(=O)[C@@H](NC(=O)Cn4cnnn4)[C@H]3SC2)s1 . Fill in?
Result: 0.8

Problem: Missing value: MIC, Klebsiella pneumoniae, entry Cc1nnc(SCC2=C(C(=O)[O-])N3C(=O)[C@@H](NC(=O)CS(C)(=O)=O)[C@H]3SC2)s1.[Na+] . Fill in?
Result: 3.1

Problem: Missing value: MIC, Klebsiella pneumoniae, entry CCCCS(=O)(=O)CC(=O)N[C@@H]1C(=O)N2C(C(=O)O)=C(COC(C)=O)CS[C@H]12 . Fill in?
Result: 13

Problem: Missing value: MIC, Klebsiella pneumoniae, entry CC(=O)OCC1=C(C(=O)[O-])N2C(=O)[C@@H](NC(=O)CS(C)(=O)=O)[C@H]2SC1.[Na+] . Fill in?
Result: 13

Problem: Missing value: MIC, Klebsiella pneumoniae, entry CCCS(=O)(=O)CC(=O)N[C@@H]1C(=O)N2C(C(=O)O)=C(COC(C)=O)CS[C@H]12 . Fill in?
Result: 6.2

Problem: Missing value: MIC, Klebsiella pneumoniae, entry CC(=O)OCC1=C(C(=O)O)N2C(=O)[C@@H](NC(=O)Cc3cccs3)[C@H]2SC1 . Fill in?
Result: 3.1

Problem: Missing value: MIC, Klebsiella pneumoniae, entry Cc1nnc(SCC2=C(C(=O)[O-])N3C(=O)[C@@H](NC(=O)CS(C)(=O)=O)[C@H]3SC2)[nH]1.[Na+] . Fill in?
Result: 3.1

Problem: Missing value: MIC, Klebsiella pneumoniae, entry Cn1nnnc1SCC1=C(C(=O)O)N2C(=O)[C@@H](NC(=O)CS(=O)(=O)c3ccccc3)[C@H]2SC1 . Fill in?
Result: 3.1

Problem: Missing value: MIC, Klebsiella pneumoniae, entry CC(=O)OCC1=C(C(=O)[O-])N2C(=O)[C@@H](NC(=O)C(C)S(C)(=O)=O)[C@H]2SC1.[Na+] (stereo partly drawn) . Fill in?
Result: 3.1

Problem: Missing value: MIC, Klebsiella pneumoniae, entry CCCCS(=O)(=O)CC(=O)N[C@@H]1C(=O)N2C(C(=O)[O-])=C(CSc3nnc(C)s3)CS[C@H]12.[Na+] . Fill in?
Result: 6.2

Problem: Missing value: MIC, Klebsiella pneumoniae, entry Cn1nnnc1SCC1=C(C(=O)[O-])N2C(=O)[C@@H](NC(=O)CS(C)(=O)=O)[C@H]2SC1.[Na+] . Fill in?
Result: 1.6

Problem: Missing value: MIC, Klebsiella pneumoniae, entry CS(=O)(=O)CC(=O)N[C@@H]1C(=O)N2C(C(=O)[O-])=C(CSc3cnn[nH]3)CS[C@H]12.[Na+] . Fill in?
Result: 6.2

Problem: Missing value: MIC, Klebsiella pneumoniae, entry CC(=O)OCC1=C(C(=O)[O-])N2C(=O)[C@@H](NC(=O)CS(=O)(=O)c3ccccc3)[C@H]2SC1.[Na+] . Fill in?
Result: 13

---

system: Klebsiella pneumoniae; experiment: Antibacterial activity against Klebsiella pneumoniae 4200 by two-fold agar dilution method; type: functional
Give MIC for every item shown.
Kindly report the value followed by its unit.

Problem: Entry under review: Cn1cnnc1SCC1=C(C(=O)[O-])N2C(=O)[C@@H](NC(=O)CS(C)(=O)=O)[C@H]2SC1.[Na+] . Reported MIC?
Result: 6.2 µg/mL

Problem: Entry under review: CCS(=O)(=O)CC(=O)N[C@@H]1C(=O)N2C(C(=O)O)=C(CSc3nnc(C)s3)CS[C@H]12 . Reported MIC?
Result: 1.6 µg/mL

Problem: Entry under review: CCS(=O)(=O)CC(=O)N[C@@H]1C(=O)N2C(C(=O)[O-])=C(CSc3nnnn3C)CS[C@H]12.[Na+] . Reported MIC?
Result: 1.6 µg/mL

Problem: Entry under review: CCCS(=O)(=O)CC(=O)N[C@@H]1C(=O)N2C(C(=O)[O-])=C(CSc3nnc(C)s3)CS[C@H]12.[Na+] . Reported MIC?
Result: 3.1 µg/mL
